# Test system: K-Ras G12C (Homo sapiens, UniProt P01116, G12C)
# Construct: This protein contained 188 amino acids in total, including an N-terminal 6-Histidine tag; made in house; host or cells: E. coli BL21
# Test method notes: CAF assay (% CAF; method in Example 7, not in this part)
# Format: binding
# Stated conditions: 10 uM, 1 h; Table 3
Measured quantity: % CAF @ 10 uM, 1h

GET /value?item= C=CC(=O)N1C2CN(c3nc(=O)n4c5c(c(-c6ccc(F)cc6F)c(Cl)cc35)SCC4)CC1CS(=O)(=O)C2 [Example 84] &field=% CAF @ 10 uM, 1h returns 43.8%

GET /value?item= C=CC(=O)N1CCN(c2nc(=O)n3c4c(c(-c5ccc(F)cc5F)c(Cl)cc24)SCC3)CC12CCNC2=O (stereo not drawn) [Example 116] &field=% CAF @ 10 uM, 1h returns 27.4%

GET /value?item= C=CC(=O)N1CCN(c2nc(=O)n3c4c(c(-c5c(F)cc(F)cc5F)c(Cl)cc24)SC[C@H]3CC2CCN(C)CC2)[C@@H](C)C1 [Example 91] &field=% CAF @ 10 uM, 1h returns 94.8%

GET /value?item= C=CC(=O)N1CCN(c2nc(=O)n3c4c(c(-c5ccc(F)cc5F)c(Cl)cc24)SCC3)CC1 [Example 164] &field=% CAF @ 10 uM, 1h returns 95.1%

GET /value?item= C=CC(=O)N1CCN(c2nc(=O)n3c4c(c(-c5ccc(F)cc5F)c(Cl)cc24)SCC3)[C@@H](C)C1 [Example 179] &field=% CAF @ 10 uM, 1h returns 96%

GET /value?item= C=CC(=O)N1CCN(c2nc(=O)n3c4c(c(-c5ccc(F)cc5F)c(Cl)cc24)SCC3)C2COCC21 (stereo not drawn) [Example 134] &field=% CAF @ 10 uM, 1h returns 85%

GET /value?item= C=CC(=O)N1CCN(c2nc(=O)n3c4c(c(-c5ccc(F)cc5F)c(Cl)cc24)SCC3)CC12CN(C)C2=O (stereo not drawn) [Example 133] &field=% CAF @ 10 uM, 1h returns 51.9%

GET /value?item= C=CC(=O)N1CCN(c2nc(=O)n3c4c(c(-c5cccc6ccccc56)c(Cl)cc24)SCC3)[C@@H](C)C1 [Example 154] &field=% CAF @ 10 uM, 1h returns 24%

GET /value?item= C[C@H]1CN(C(=O)/C=C/C(F)F)CCN1c1nc(=O)n2c3c(c(-c4cc(F)cc(F)c4)c(Cl)cc13)SCC2 [Example 67] &field=% CAF @ 10 uM, 1h returns 91%

GET /value?item= C=CC(=O)N1CCN(c2nc(=O)n3c4c(c(-c5ccc(F)c(C(=O)NC)c5)c(Cl)cc24)SCC3)[C@@H](C)C1 [Example 85] &field=% CAF @ 10 uM, 1h returns 60.3%

GET /value?item= C=CC(=O)N1CCN(c2nc(=O)n3c4c(c(-c5ccc(F)cc5F)c(Cl)cc24)SCC3)[C@@H](C#N)C1 [Example 173] &field=% CAF @ 10 uM, 1h returns 2.2%

GET /value?item= C[C@H]1CN(C(=O)/C=C/C(F)(F)F)CCN1c1nc(=O)n2c3c(c(-c4c(F)cc(F)cc4F)c(Cl)cc13)SCC2 [Example 111] &field=% CAF @ 10 uM, 1h returns 95.2%

GET /value?item= C[C@H]1CN(C(=O)/C=C/C(F)(F)F)CCN1c1nc(=O)n2c3c(c(-c4ccc(Cl)c(F)c4)c(Cl)cc13)SCC2 [Example 79] &field=% CAF @ 10 uM, 1h returns 92%

GET /value?item= C=CC(=O)N1CCN(c2nc(=O)n3c4c(c(-c5ccc(F)cc5F)c(Cl)cc24)SCCC3)[C@@H](C)C1 [Example 102] &field=% CAF @ 10 uM, 1h returns 95.4%

GET /value?item= C=CC(=O)N1CCN(c2nc(=O)n3c4c(c(-c5cccc6c5C(=O)NC6)c(Cl)cc24)SCC3)[C@@H](C)C1 [Example 96] &field=% CAF @ 10 uM, 1h returns 54%

GET /value?item= C=CC(=O)N1CCN(c2nc(=O)n3c4c(c(-c5ccc(F)cc5F)c(Cl)cc24)SCC3)C2CN(S(C)(=O)=O)CC21 (stereo not drawn) [Example 118] &field=% CAF @ 10 uM, 1h returns 48.3%

GET /value?item= C[C@H]1CN(C(=O)/C=C/C(F)F)CCN1c1nc(=O)n2c3c(c(-c4ccc(F)cc4F)c(Cl)cc13)SCC2 [Example 119] &field=% CAF @ 10 uM, 1h returns 97.1%

GET /value?item= C=CC(=O)N1CCN(c2nc(=O)n3c4c(c(-c5cc(F)c(F)c(F)c5)c(Cl)cc24)SCC3)[C@@H](C)C1 [Example 90] &field=% CAF @ 10 uM, 1h returns 78.8%

GET /value?item= C=CC(=O)N1CCN(c2nc(=O)n3c4c(c(-c5ccc(F)cc5F)c(Cl)cc24)SCC3)C[C@@H]1CS(C)(=O)=O [Example 186] &field=% CAF @ 10 uM, 1h returns 92.6%

GET /value?item= C=CC(=O)N1CCN(c2nc(=O)n3c4c(c(-c5ccc(F)cc5F)c(Cl)cc24)SCC3)C2CCC21 (stereo not drawn) [Example 145] &field=% CAF @ 10 uM, 1h returns 58%

GET /value?item= C=CC(=O)N1CCN(c2nc(=O)n3c4c(c(-c5ccc(F)cc5F)c(C#N)cc24)SCC3)[C@@H](C)C1 [Example 132] &field=% CAF @ 10 uM, 1h returns 91.9%

GET /value?item= C=CC(=O)N1[C@H](C)CN(c2nc(=O)n3c4c(c(-c5ccc(F)cc5F)c(Cl)cc24)SCC3)C[C@@H]1C [Example 157] &field=% CAF @ 10 uM, 1h returns 95%

GET /value?item= C=CC(=O)N1CCN(c2nc(=O)n3c4c(c(-c5ccc(F)cc5F)c(Cl)cc24)SCC3)[C@@H](C)C1 (atropisomer, axis not shown) [Example 180] &field=% CAF @ 10 uM, 1h returns 94.7%

GET /value?item= C=CC(=O)N1CCN(c2nc(=O)n3c4c(c(-c5ccc(F)cc5F)c(Cl)cc24)SC[C@H]3CC2CCN(C)CC2)[C@@H](C)C1 [Example 87] &field=% CAF @ 10 uM, 1h returns 82.4%

GET /value?item= C=CC(=O)N1CCN(c2nc(=O)n3c4c(c(-c5ccc(F)cc5F)c(C(F)(F)F)cc24)SCC3)[C@@H](C)C1 [Example 141] &field=% CAF @ 10 uM, 1h returns 95.7%

GET /value?item= C=CC(=O)N1CCN(c2nc(=O)n3c4c(c(-c5ccc(F)cc5F)c(Cl)cc24)[S@@+]([O-])CC3)[C@@H](C)C1 [Example 191] &field=% CAF @ 10 uM, 1h returns 26.6%

GET /value?item= C=CC(=O)N1C[C@H](C#N)N(c2nc(=O)n3c4c(c(-c5ccc(F)cc5F)c(Cl)cc24)SCC3)C[C@H]1C [Example 161] &field=% CAF @ 10 uM, 1h returns 1%
